B1: APBB1IP (parent)
chain: PPEPLSQVSMWDQRWQDHQPLLPI

Variants of: B1
Assay: protein stability index of a GFP-peptide fusion (GPS, HEK-293T) (PSI 1-6); higher = more stable;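 also: lentivirally expressed fusions sorted by FACS into six bins by GFP to DsRed ratio, PSI derived from sequencing read proportions per bin multiplied by bin number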
Settings: c terminus: a fixed tail appended

orderedResidues: PPEPLSQVSMWDQRDQDHQPLLPI
protein stability index: 4.34
--
orderedResidues: PPEPLSQVSMWDCRWQDHQPLLPI
protein stability index: 2.56
--
orderedResidues: PPEPLSQVSPWDQRWQDHQPLLPI
protein stability index: 3.87
--
orderedResidues: PPEPLSQVSMCDQRWQDHQPLLPI
protein stability index: 3.16
--
orderedResidues: PPENLSQVSMWDQRWQDHQPLLPI
protein stability index: 2.93
--
orderedResidues: PPEPLSQVSMWDQVWQDHQPLLPI
protein stability index: 2.92
--
orderedResidues: PPEPLSQVSMWDQRWQDHQPLLII
protein stability index: 2.04
--
orderedResidues: PPEPLSQVSMWDQRWQDPQPLLPI
protein stability index: 3.34
--
orderedResidues: PPEPWSQVSMWDQRWQDHQPLLPI
protein stability index: 2.2
--
orderedResidues: PPAPLSQVSMWDQRWQDHQPLLPI
protein stability index: 2.87
--
orderedResidues: PPEPLSQVSMWDQRWQDHVPLLPI
protein stability index: 2.33
--
orderedResidues: PPEPLSQVSMWDQRWQDHQPYLPI
protein stability index: 3.33
--
orderedResidues: PPEPLSQVSMWDQRWQDHQPLLYI
protein stability index: 2.06
--
orderedResidues: KPEPLSQVSMWDQRWQDHQPLLPI
protein stability index: 2.73
--
orderedResidues: PPEPLSQVSMWDQRWQDHCPLLPI
protein stability index: 2.61
--
orderedResidues: PPEPLSWVSMWDQRWQDHQPLLPI
protein stability index: 2.05
--
orderedResidues: PPEPLSKVSMWDQRWQDHQPLLPI
protein stability index: 2.34
--
orderedResidues: PPEPLSQVSMDDQRWQDHQPLLPI
protein stability index: 4.4
--
orderedResidues: PPEPLSQVSTWDQRWQDHQPLLPI
protein stability index: 2.87
--
orderedResidues: PPEPLSQVSMWDQRWQDHQGLLPI
protein stability index: 3.38
--
orderedResidues: PPEPLSQVSMNDQRWQDHQPLLPI
protein stability index: 4.06
--
orderedResidues: PPEPLSQVSMWDQPWQDHQPLLPI
protein stability index: 2.9
